Values compiled from patent US20210380702A1.

// reported kon for each item listed
# target: T1, Human PD-L1 Dimer (human, UniProt Q9NZQ7 19-239)
# T1 construct: also called hPD-L1 dimer; hPD-L1-hFc
# T1 sequence (Q9NZQ7 19-239): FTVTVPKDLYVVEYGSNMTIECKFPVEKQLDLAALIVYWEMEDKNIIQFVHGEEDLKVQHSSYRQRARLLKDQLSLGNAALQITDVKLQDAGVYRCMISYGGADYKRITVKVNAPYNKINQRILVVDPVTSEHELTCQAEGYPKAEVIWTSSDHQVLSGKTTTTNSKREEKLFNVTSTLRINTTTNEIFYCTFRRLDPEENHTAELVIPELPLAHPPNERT
# experimentNotes: SPR (Biacore), mAb captured, 37C
Report the value in M⁻¹ s⁻¹ with no unit label.

Known results for binders:
# binder, unitSymbol, kon
measured = [
    ("H2aM8321N (antibody, mouse IgG2, V domains shown, also called H2M8321N) VH: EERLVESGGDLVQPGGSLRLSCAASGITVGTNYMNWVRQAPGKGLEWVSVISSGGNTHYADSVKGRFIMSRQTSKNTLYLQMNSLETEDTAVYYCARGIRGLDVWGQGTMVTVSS VL: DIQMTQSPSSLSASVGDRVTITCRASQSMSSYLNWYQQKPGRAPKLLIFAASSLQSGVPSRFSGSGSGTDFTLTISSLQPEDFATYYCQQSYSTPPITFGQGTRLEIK", "M⁻¹ s⁻¹", 946000),
    ("H1H9329P (antibody, human IgG1, V domains shown) VH: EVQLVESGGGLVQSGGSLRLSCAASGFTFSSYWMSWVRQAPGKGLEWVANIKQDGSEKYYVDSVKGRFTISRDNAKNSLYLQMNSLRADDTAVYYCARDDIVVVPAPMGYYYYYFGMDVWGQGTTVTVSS VL: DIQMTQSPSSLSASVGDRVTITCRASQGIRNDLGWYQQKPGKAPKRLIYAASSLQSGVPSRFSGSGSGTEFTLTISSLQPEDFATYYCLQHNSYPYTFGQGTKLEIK", "M⁻¹ s⁻¹", "3.87e+06"),
    ("H2aM8317N (antibody, mouse IgG2, V domains shown, also called H2M8317N) VH: EVQLVESGGGLVQPGGSLRLSCAASGFTVGSNYMNWVRQAPGKGLEWVSVIYSGGSTYYADSVKGRFTISRLTSKNTLYLQMSSLRPEDTAVYYCARGIRGLDVWGQGTTVTVSS VL: DIQMTQSPSSLSASVGDRVTITCRASQTINIYLNWYQQKPGRAPRLLIYAASSLQSGVPSRFSGSGSGTDFTLTISSLQPEDFATYYCHQSYSTPPITFGQGTRLEIK", "M⁻¹ s⁻¹", 481000),
    ("H2aM8314N (antibody, mouse IgG2, V domains shown, also called H2M8314N) VH: EVQLVESGGGVVRPGGSLRLSCAASGFTFDDYGMTWVRQAPGRGLEWVSGIHWHGKRTGYADSVKGRFTISRDNAKKSLYLQMNSLKGEDTALYHCVRGGMSTGDWFDPWGQGTLVIVSS VL: DIQMTQSPSSLSASLGDRVTITCRASQSINSYLNWYQQKPGKAPKLLIYVASSLQSGVPSRFSGSGSGTEFTLTISNLQPEDFATYYCQQSYSTPPITFGQGTRLEIK", "M⁻¹ s⁻¹", "3.89e+06"),
]

Now turn to the next binder.
// query Tell me the measured kon of H1H9336P (antibody, human IgG1, V domains shown) VH: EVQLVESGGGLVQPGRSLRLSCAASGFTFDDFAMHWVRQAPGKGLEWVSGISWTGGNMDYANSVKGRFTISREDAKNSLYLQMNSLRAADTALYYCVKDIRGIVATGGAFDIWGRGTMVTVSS VL: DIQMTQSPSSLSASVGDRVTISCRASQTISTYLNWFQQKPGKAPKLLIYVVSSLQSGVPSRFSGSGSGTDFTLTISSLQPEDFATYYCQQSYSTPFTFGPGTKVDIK , please.
// result 2.75e+06
